# Test system: U2OS
# Procedure summary: Multiplex assay against U2OS
# Format: toxicity, cell-based
# Cond: human, 24 h, 1 µM, compound concentration 1 uM, replicate 2
Non-standard residues stand in square brackets, D forms with d. Residues, ends and D or L forms follow the SMILES beside them.
# key: entry, value: Population Pyknosed Nuclei (%)
Quantity kind: Population Pyknosed Nuclei (%)

Compound | Quantity kind | U | Numeric result
CN(C)C(=O)Cn1cc(-c2ccc(-c3nnc4ccccn34)cc2)cn1 | Population Pyknosed Nuclei (%) | % | 8
COc1cc(Nc2ncc3c(n2)-c2ccc(Cl)cc2C(c2c(F)cccc2OC)=NC3)ccc1C(=O)O | Population Pyknosed Nuclei (%) | % | 15
C[C@H](NC(=O)CNC(=O)c1cccc(Cl)c1)c1ccccc1 | Population Pyknosed Nuclei (%) | % | 10
CC(C)(C)c1ccc(CSc2cnn(C(C)(C)C)c(=O)c2Cl)cc1 | Population Pyknosed Nuclei (%) | % | 5
O=c1nc2[nH]c3ccccc3nc-2c(=O)[nH]1 | Population Pyknosed Nuclei (%) | % | 9
CN1C[C@H](C(=O)N[C@]2(C)O[C@@]3(O)[C@@H]4CCCN4C(=O)[C@H](Cc4ccccc4)N3C2=O)C[C@@H]2c3cccc4[nH]cc(c34)C[C@H]21.CS(=O)(=O)O [DIHYDROERGOTAMINE MESYLATE] | Population Pyknosed Nuclei (%) | % | 13
CN1CCN(c2ccc(Nc3c4ccccc4nc4ccccc34)cc2)CC1.Cl.Cl.O | Population Pyknosed Nuclei (%) | % | 10
Cl.Cl.OCCOCCN1CCN(C(c2ccccc2)c2ccc(Cl)cc2)CC1 (stereo unspecified) [HYDROXYZINE HYDROCHLORIDE] | Population Pyknosed Nuclei (%) | % | 12
O=C(NCCNCC(O)COc1ccc(O)cc1)N1CCOCC1.O=C(NCCNCC(O)COc1ccc(O)cc1)N1CCOCC1.O=C(O)/C=C/C(=O)O (stereo unspecified) [XAMOTEROL FUMARATE] | Population Pyknosed Nuclei (%) | % | 11
COc1cc(C(=O)N2CC[C@@H](O)[C@@H](N)C2)cc2nc(-c3cc4ccccc4n3CC3CC3)n(C)c12.Cl | Population Pyknosed Nuclei (%) | % | 11
CC(C)C[C@@H]1NC(=O)[C@@H](C(C)C)NC(=O)[C@@H]2CCCN2C(=O)[C@@H](CC(=O)O)NC(=O)[C@@H](Cc2c[nH]c3ccccc23)NC1=O [BQ-123] (cyclo(L[dW][dD]P[dV])) | Population Pyknosed Nuclei (%) | % | 10
Cc1sc2c(c1C)C(c1ccc(Cl)cc1)=N[C@H](CC(=O)OC(C)(C)C)c1nnc(C)n1-2 | Population Pyknosed Nuclei (%) | % | 8
C=CCN1C[C@H](C(=O)N(CCCN(C)C)C(=O)NCC)C[C@@H]2c3cccc4[nH]cc(c34)C[C@H]21 | Population Pyknosed Nuclei (%) | % | 8
COc1ccc2[nH]c(I)c(CCNC(C)=O)c2c1 | Population Pyknosed Nuclei (%) | % | 5
CCn1c(-c2nc3cc(C(=O)N4CCCC(N)C4)ccc3n2C)cc2ccccc21.Cl (stereo unspecified) | Population Pyknosed Nuclei (%) | % | 5
Nc1nc(CC(=O)Nc2ccc(CCNC[C@H](O)c3ccccc3)cc2)cs1 | Population Pyknosed Nuclei (%) | % | 9

* * *

# Test system: HEK-293T
# Procedure summary: Multiplex assay against HEK293T
# Assay type: toxicity, cell-based
# Cond: human, 24 h, 1 µM, compound concentration 1 uM, replicate 2

Compound | U | Population Normal (%)
Cc1sc2c(c1C)C(c1ccc(Cl)cc1)=N[C@H](CC(=O)OC(C)(C)C)c1nnc(C)n1-2 | % | 93
COc1cc(OC2CCN(C(C)=O)CC2)ccc1C(=O)N1CCC(N2C(=O)OCc3ccccc32)CC1 | % | 93
Cn1cc(C(=O)OCC2CCN(CCNS(C)(=O)=O)CC2)c2ccccc21 | % | 94
N[C@](CC1c2ccccc2Oc2ccccc21)(C(=O)O)[C@H]1C[C@@H]1C(=O)O | % | 94
COc1cc2nc(N3CCN(C(=O)c4ccco4)CC3)nc(N)c2cc1OC.Cl [PRAZOSIN HYDROCHLORIDE] | % | 94
Nc1nc(-c2ccco2)c2cnn(Cc3ccccc3F)c2n1 | % | 94
Cc1c(Cc2ccc3ccccc3n2)c2cc(F)ccc2n1CC(=O)O | % | 94
CN1CCC(C(=O)c2cccc(NC(=O)c3c(F)cc(F)cc3F)n2)CC1 | % | 96
CCC(=O)OCC(=O)[C@@]1(OC(=O)CC)[C@@H](C)C[C@H]2[C@@H]3CCC4=CC(=O)C=C[C@]4(C)[C@@]3(Cl)[C@@H](O)C[C@@]21C [BECLOMETHASONE DIPROPIONATE] | % | 94
CC(C)C[C@H](CO)Nc1nc(S[C@@H](C)c2ccccc2)nc2nc(N)sc12 | % | 94
COc1cc(Nc2ncc3c(n2)-c2ccc(Cl)cc2C(c2c(F)cccc2OC)=NC3)ccc1C(=O)O | % | 90
C=CCN1C[C@H](C(=O)N(CCCN(C)C)C(=O)NCC)C[C@@H]2c3cccc4[nH]cc(c34)C[C@H]21 | % | 93
Cc1cc(=O)n(C)c2cc(N3C(=O)CC[C@H](NS(=O)(=O)CC(C)C)[C@H]3c3ccc(Cl)cc3)ccc12 | % | 94
COc1cc2nc(N3CCN(C(=O)COc4c(OC)cccc4C(C)C)CC3)nc(N)c2cc1OC.Cl.Cl | % | 97
COCCCN1CCC(NC(=O)c2cc(Cl)c(N)c3c2OCC3)CC1 [PRUCALOPRIDE] | % | 95
O=C(O)CCC/C=C\CC1C(O)CC(O)C1/C=C/C(O)COc1cccc(Cl)c1 (configuration not stated) | % | 94
CCCCCCNC(=O)Nc1ccc(S(=O)(=O)Nc2ccc(CCNC[C@H](O)COc3ccc(O)cc3)cc2)cc1 | % | 95

* * *

# key: entry, value: Population Healthy Nuclei (%)
# Tested on: U2OS
# Procedure summary: Multiplex assay against U2OS
# Assay type: toxicity, cell-based
# Cond: human, 12 h, 1 µM, compound concentration 1 uM, replicate 1
Quantity kind: Population Healthy Nuclei (%)

Compound | U | Numeric result
Cl.Cl.OCCOCCN1CCN(C(c2ccccc2)c2ccc(Cl)cc2)CC1 (centres undefined) [HYDROXYZINE HYDROCHLORIDE] | % | 61
CCc1nn2c(C)cc(C)nc2c1Cc1ccc(-c2nnc(C3CCNCC3)o2)cc1 | % | 60
Cc1cc(-c2ccc3c(c2)CC[C@H]3N2CC3(CCN(C(=O)Cc4cn5cc(C)sc5n4)CC3)C2)ncn1 | % | 65
Cc1cc(O)c(-c2ccc([C@@H](C)CN(C)C)cc2)c2c1[nH]c(=O)c1sccc12 | % | 48

* * *

# System: U2OS
# Procedure summary: Multiplex assay against U2OS
# Type: toxicity, cell-based
# Cond: human, 12 h, 10 µM, compound concentration 10 uM, replicate 1
Quantity kind: Population Tubulin-Different-Phenotype (%)

Molecule | U | Numeric result
C[C@@H]1CC(=O)Nc2cccc(-c3ccc4c(c3)c(-c3cnn(C)c3)nn4C)c2N1 | % | 8
Cn1cc(C(=O)OCC2CCN(CCNS(C)(=O)=O)CC2)c2ccccc21 | % | 5
COCCCN1CCC(NC(=O)c2cc(Cl)c(N)c3c2OCC3)CC1 [PRUCALOPRIDE] | % | 2
CCn1c(-c2nc3cc(C(=O)N4CCCC(N)C4)ccc3n2C)cc2ccccc21.Cl (centres undefined) | % | 27
Cc1nn(C)c2nc(NNC(=O)Nc3cc(Cl)nc(Cl)c3)cc(C(C)C)c12 | % | 80
CC(C)C[C@H](CO)Nc1nc(S[C@@H](C)c2ccccc2)nc2nc(N)sc12 | % | 20
CC(C)(C)c1ccc(CSc2cnn(C(C)(C)C)c(=O)c2Cl)cc1 | % | 3
COc1cc(Nc2ncc3c(n2)-c2ccc(Cl)cc2C(c2c(F)cccc2OC)=NC3)ccc1C(=O)O | % | 4
CSc1nc(NC2CCCC2)c([N+](=O)[O-])c(NC2CCCC2)n1 | % | 4
O=C(O)CCC/C=C\CC1C(O)CC(O)C1/C=C/C(O)COc1cccc(Cl)c1 (centres undefined) | % | 3
Nc1nc(CC(=O)Nc2ccc(CCNC[C@H](O)c3ccccc3)cc2)cs1 | % | 4
CCCCCCNC(=O)Nc1ccc(S(=O)(=O)Nc2ccc(CCNC[C@H](O)COc3ccc(O)cc3)cc2)cc1 | % | 10
COc1c(Nc2ccc(S(C)(=O)=O)nc2C)ncnc1OC1CCN(C(=O)OC(C)C)CC1 | % | 4
Cc1sc2c(c1C)C(c1ccc(Cl)cc1)=N[C@H](CC(=O)OC(C)(C)C)c1nnc(C)n1-2 | % | 39
OCCCNc1cc(-c2ccnc(Nc3cccc(Cl)c3)n2)ccn1 | % | 46
Cc1c(Cc2ccc3ccccc3n2)c2cc(F)ccc2n1CC(=O)O | % | 2
O=c1nc2[nH]c3ccccc3nc-2c(=O)[nH]1 | % | 1
CN1CCN(c2ccc(Nc3c4ccccc4nc4ccccc34)cc2)CC1.Cl.Cl.O | % | 82
N[C@](CC1c2ccccc2Oc2ccccc21)(C(=O)O)[C@H]1C[C@@H]1C(=O)O | % | 2

This collection of values is drawn from ChEMBL document CHEMBL5058577.
